System: glycogen synthase kinase-3 (GSK3A per assay name; protocol says GSK3B)
test: GSK3 binders on small-molecule microarrays, primary screen, biochemical, small-molecule microarray, 635 nm fluorescence, GSK3A (AID 1103); note: the record names both GSK3A and GSK3B
runConditions: small-molecule microarray binding, fluorescence 635 nm; higher = more signal
observedProperty: composite z-score
Give bare numbers.

Reference set, count: 3
compound | targetOrTestSystem | composite z-score
COC(=O)CC=C[C@@H](C)[C@@H](C=NOC(C)CN1CCCc2nc(C)c(C)cc21)NS(=O)(=O)c1ccc(C)cc1 (some centres undefined) | glycogen synthase kinase-3 (GSK3A per assay name; protocol says GSK3B) | 0.793
CSCC[C@@H]1NC(=O)CC=C[C@@H](C)COC(=O)[C@H](C)COC1=O | glycogen synthase kinase-3 (GSK3A per assay name; protocol says GSK3B) | 0.781
CCOC(=O)CCN1C(=O)[C@H]2[C@@H]3C(=CC[C@H]2C1=O)C(=O)[C@H]1O[C@H]1[C@H]3O | glycogen synthase kinase-3 (GSK3A per assay name; protocol says GSK3B) | -0.837

Each compound below has a recorded value; state its composite z-score.
1. COC(=O)CC=C[C@@H](C)[C@@H](C=NOC[C@@H](O)COCc1ccco1)NS(=O)(=O)c1ccc(C)cc1
2. CCOC(=O)CCN1C(=O)[C@H]2[C@H]3[C@H](O)[C@H](O)CC(=NNC(=O)OCc4ccccc4)[C@H]3CC[C@H]2C1=O
3. O=C1[C@H]2CCn3c(=O)n(-c4ccccc4)c(=O)n3[C@H]2[C@H](O)[C@@H]2O[C@H]12
4. CC(C)=CCCC(C)=CCON=C1C[C@@H](O)[C@@H](O)[C@@H]2[C@@H]3C(=O)N(c4cccc(Oc5ccccc5)c4)C(=O)[C@@H]3CC[C@H]12
5. COc1ccc(COC(=O)NN=C2C[C@@H](O)[C@@H](O)[C@@H]3[C@@H]4C(=O)N(C[C@@H]5CCCO5)C(=O)[C@@H]4CC[C@H]23)cc1
6. CCCC[C@H]1CN2[C@@H](CC[C@@H](C)[C@@H]2c2ccc(Br)cc2)C(=O)O1

Found:
[-0.268, -0.296, 0.381, 0.286, -0.797, 0.707]

----------
targetOrTestSystem: Focal adhesion kinase 1 (Homo sapiens) (UniProt Q05397)
Sequence (Q05397 whole entry, looked up): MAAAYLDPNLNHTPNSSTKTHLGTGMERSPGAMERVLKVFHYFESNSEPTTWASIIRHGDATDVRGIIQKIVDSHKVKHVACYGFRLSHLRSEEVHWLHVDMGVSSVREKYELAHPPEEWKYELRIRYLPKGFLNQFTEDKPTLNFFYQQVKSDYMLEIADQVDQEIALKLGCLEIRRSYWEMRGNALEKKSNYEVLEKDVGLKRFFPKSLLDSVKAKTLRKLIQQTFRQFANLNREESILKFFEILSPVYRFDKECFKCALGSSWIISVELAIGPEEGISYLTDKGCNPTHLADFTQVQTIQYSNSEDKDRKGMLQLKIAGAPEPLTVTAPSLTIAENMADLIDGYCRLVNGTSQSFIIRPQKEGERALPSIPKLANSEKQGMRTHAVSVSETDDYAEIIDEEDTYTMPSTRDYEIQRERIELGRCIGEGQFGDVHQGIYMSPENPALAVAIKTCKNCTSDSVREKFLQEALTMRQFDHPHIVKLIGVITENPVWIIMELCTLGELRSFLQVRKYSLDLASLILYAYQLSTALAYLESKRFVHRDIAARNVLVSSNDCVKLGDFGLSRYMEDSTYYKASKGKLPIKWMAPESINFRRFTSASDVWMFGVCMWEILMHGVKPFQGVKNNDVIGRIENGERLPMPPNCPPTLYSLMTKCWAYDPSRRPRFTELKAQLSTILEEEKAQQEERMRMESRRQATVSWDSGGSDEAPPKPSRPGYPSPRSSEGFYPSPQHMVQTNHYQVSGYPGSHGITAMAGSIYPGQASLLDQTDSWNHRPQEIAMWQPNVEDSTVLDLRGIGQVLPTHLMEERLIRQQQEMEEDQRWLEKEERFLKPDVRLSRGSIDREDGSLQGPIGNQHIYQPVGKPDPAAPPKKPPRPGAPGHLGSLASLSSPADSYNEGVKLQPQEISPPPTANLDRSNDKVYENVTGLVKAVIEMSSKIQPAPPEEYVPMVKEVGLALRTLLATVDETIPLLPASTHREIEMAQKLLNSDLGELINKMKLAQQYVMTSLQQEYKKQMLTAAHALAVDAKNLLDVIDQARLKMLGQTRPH
test: small-molecule microarray binders of FAK, primary screen, biochemical, 635/667 nm fluorescence, BSA, DTT (AID 1130);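 note: composite of spot emission at 667 nm and signal to noise over triplicate slides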
runConditions: PTK2 binding, 635 nm fluorescence, higher = more signal
Classification scheme (composite z-score): bin A (below -0.2), bin B (-0.2 to below 0.009), bin C (0.009 or more)

molecule | labelClass
COC(=O)[C@H](C)NC(=O)CCC1CC(OC(=O)NCCc2ccc(F)cc2)CC2(CCCC(COC(=O)NCc3ccccc3)O2)O1 (stereo partly drawn) | bin C
O=C1C2=CC[C@H]3C(=O)N(c4ccc(F)cc4F)C(=O)[C@H]3[C@H]2[C@H](O)[C@@H]2O[C@H]12 | bin B

Lookup: Which composite z-score band matches COCCNC(=O)OCC1CCCC2(CC(OC(=O)NCc3cccc4ccccc34)CC(CCC(=O)N[C@@H](C)C(=O)OC)O2)O1 (stereo partly drawn) ?
Found: bin A

Lookup: Which composite z-score band matches CC(C)(C)N1C(=O)[C@H]2[C@H]3[C@H](O)[C@H](O)CC(=NOC[C@@H](O)COCc4ccco4)[C@H]3CC[C@H]2C1=O ?
Found: bin B

Lookup: Which composite z-score band matches COc1ccc(COC(=O)NN=C2C[C@@H](O)[C@@H](O)[C@@H]3[C@@H]4C(=O)N([C@@H](C)c5ccccc5)C(=O)[C@@H]4CC[C@H]23)cc1 ?
Found: bin A

Lookup: Which composite z-score band matches CC(CCN1CCCc2nc(C)c(C)cc21)=NOC[C@@H](C)[C@H](OCc1ccccc1)C(C)C ?
Found: bin B

Lookup: Which composite z-score band matches CCOC(=O)[C@H](CC(C)C)NC(=O)CCC1CC(OC(=O)NCc2ccc3c(c2)OCO3)CC2(CCCC(COC(=O)NCCOC)O2)O1 (stereo partly drawn) ?
Found: bin A

Lookup: Which composite z-score band matches CC(C)CON=C1C[C@@H](O)[C@@H](O)[C@@H]2[C@@H]3C(=O)N(Cc4ccc5c(c4)OCO5)C(=O)[C@@H]3CC[C@@H]12 ?
Found: bin C

Lookup: Which composite z-score band matches COC(=O)CC=C[C@@H](C)[C@@H](C=NOC[C@@H](O)COCc1ccco1)NS(=O)(=O)c1ccc(C)cc1 ?
Found: bin A

Lookup: Which composite z-score band matches COc1ccc(COC(=O)NN=C2C[C@@H](O)[C@@H](O)[C@@H]3[C@@H]4C(=O)N(C(C)(C)C)C(=O)[C@@H]4CC[C@@H]23)cc1 ?
Found: bin B

Lookup: Which composite z-score band matches CC(=O)OC[C@H]1O[C@@H](ON=C2[C@H]3CCn4c(=O)n(-c5ccccc5)c(=O)n4[C@H]3[C@H](O)[C@@H]3O[C@H]23)[C@H](OC(C)=O)[C@@H](OC(C)=O)[C@@H]1OC(C)=O ?
Found: bin B

Lookup: Which composite z-score band matches O=C1C[C@@H](O)[C@@H](O)[C@@H]2[C@@H]3C(=O)N(Cc4ccccc4)C(=O)[C@@H]3CC[C@H]12 ?
Found: bin C

----------
Give measured composite z-score for each item. Keep answers brief.
targetOrTestSystem: Pro-neuregulin-1, membrane-bound isoform (Homo sapiens) (UniProt Q02297)
Sequence (Q02297 whole entry, looked up, canonical isoform): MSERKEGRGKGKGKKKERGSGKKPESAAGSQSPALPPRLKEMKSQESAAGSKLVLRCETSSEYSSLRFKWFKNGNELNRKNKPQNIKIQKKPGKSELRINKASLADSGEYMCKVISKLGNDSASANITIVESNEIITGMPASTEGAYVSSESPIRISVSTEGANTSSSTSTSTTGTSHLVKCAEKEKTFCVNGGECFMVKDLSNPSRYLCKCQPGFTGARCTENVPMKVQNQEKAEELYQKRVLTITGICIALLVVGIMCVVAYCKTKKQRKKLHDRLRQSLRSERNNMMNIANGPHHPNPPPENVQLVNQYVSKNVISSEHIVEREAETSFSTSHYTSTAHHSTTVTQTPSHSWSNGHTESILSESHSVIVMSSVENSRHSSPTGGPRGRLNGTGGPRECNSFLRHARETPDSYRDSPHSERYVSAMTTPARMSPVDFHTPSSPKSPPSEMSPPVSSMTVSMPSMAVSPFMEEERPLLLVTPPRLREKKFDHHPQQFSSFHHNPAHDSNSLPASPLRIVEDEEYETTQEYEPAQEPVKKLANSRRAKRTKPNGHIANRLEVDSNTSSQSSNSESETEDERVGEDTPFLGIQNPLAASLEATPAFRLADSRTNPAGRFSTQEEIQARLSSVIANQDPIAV
test: NRG1 binders on small-molecule microarrays, primary screen, psychiatric disease protein project, biochemical, small-molecule microarray, fluorescence 635/667 (AID 1075);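 note: score combines 667 nm spot fluorescence with signal to noise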
runConditions: NRG1 binding, 635 nm fluorescence, higher = more signal

Reference set, count: 3
molecule | targetOrTestSystem | composite z-score
CO[C@@H]1COC(=O)[C@@H]2CCCN2C(=O)[C@@H](C)COC(=O)CCC[C@H]1C | Pro-neuregulin-1, membrane-bound isoform (Homo sapiens) (UniProt Q02297) | -0.0887
CC(C)C(=O)N[C@H]1CCCN1C(=O)C=Cc1ccccc1 | Pro-neuregulin-1, membrane-bound isoform (Homo sapiens) (UniProt Q02297) | -0.219
O=C1CCCC=C1C(O)C1CCCCC1 (stereo not drawn) | Pro-neuregulin-1, membrane-bound isoform (Homo sapiens) (UniProt Q02297) | -0.594

Each molecule below has a recorded value; state its composite z-score.
1. COc1ccc(-c2cnnc(CCCn3ccnc3-c3ccccc3)n2)cc1
2. CC(=O)OC[C@H]1O[C@H](CCON=C(C)C)C=C[C@@H]1OC(C)=O
3. COc1ccc(OC[C@@H]2CC3[C@@H](c4ccc(Br)cc4)[C@H](C)CC[C@H]3C(=O)O2)cc1 (stereo partly drawn)

Found:
[0.278, -0.172, 0.093]

Each molecule below has a recorded value; state its composite z-score.
1. CC(C)CON=C1C[C@@H](O)[C@@H](O)[C@@H]2[C@@H]3C(=O)N([C@@H](C)c4ccccc4)C(=O)[C@@H]3CC[C@@H]12
2. CC(CCN1CCCCc2nc(C)c(C)cc21)=NO[C@@H](C)c1cc(-c2c(C)cc(C)cc2C)no1
3. CC(C)(C)N1C(=O)[C@H]2[C@H]3[C@H](O)[C@H](O)CC(=NOC[C@@H](O)COCc4ccco4)[C@H]3CC[C@H]2C1=O
4. C=CC[C@@H]1C=C[C@H](ON=C2C[C@@H](O)[C@@H](O)[C@@H]3[C@@H]4C(=O)N(CC)C(=O)[C@@H]4CC[C@@H]23)[C@@H](CO)O1
5. CC(CCN1CCCCc2nc(C)c(C)cc21)=NOC[C@@H](O)[C@H]1O[C@@H]2OC(C)(C)O[C@@H]2[C@H]1O

Found:
-0.104
0.0782
0.107
-0.417
0.459

----------
System: glycogen synthase kinase-3 (GSK3A per assay name; protocol says GSK3B)
test: GSK3 binders on small-molecule microarrays, primary screen, biochemical, small-molecule microarray, 635 nm fluorescence, GSK3A (AID 1103); note: the record names both GSK3A and GSK3B
runConditions: small-molecule microarray binding, fluorescence 635 nm; higher = more signal
Give measured composite z-score for each item. Keep answers brief.
Answers are plain numbers.

molecule | assayValue
C#CCCCON=C1C[C@@H](O)[C@@H](O)[C@@H]2[C@@H]3C(=O)N([C@@H](C)c4ccccc4)C(=O)[C@@H]3CC[C@@H]12 | -0.521

Each molecule below has a recorded value; state its composite z-score.
1. COC(OC)[C@@H](C)[C@H](OC)[C@@H](C)[C@H](OC)c1ccccc1
2. CON=C[C@@H](OC)[C@H](C)C=CCC(=O)OC
3. CCOC(=O)[C@H](Cc1ccccc1)NC(=O)CCC1CC(OC(=O)NCCc2ccc(F)cc2)CC2(CCCC(COC(=O)NCc3cccc(C(F)(F)F)c3)O2)O1 (stereo not given in full)
4. CCN1C(=O)[C@H]2[C@H]3[C@H](O)[C@H](O)CC(=NO[C@@H]4O[C@H](CO)[C@@H](O)[C@H](O)[C@H]4O)[C@H]3CC[C@H]2C1=O

Found:
1: -0.485; 2: -0.115; 3: 1.06; 4: 0.342
